Catalogue of pKi values
- Tested On: human recombinant dopamine D4.2 receptor (Homo sapiens, UniProt P21917, DEL265-296)
- Construct: expressed in transfected cells; host or cells: CHO K1
- Sequence (P21917 with tags, fused parts or gaps DEL265-296): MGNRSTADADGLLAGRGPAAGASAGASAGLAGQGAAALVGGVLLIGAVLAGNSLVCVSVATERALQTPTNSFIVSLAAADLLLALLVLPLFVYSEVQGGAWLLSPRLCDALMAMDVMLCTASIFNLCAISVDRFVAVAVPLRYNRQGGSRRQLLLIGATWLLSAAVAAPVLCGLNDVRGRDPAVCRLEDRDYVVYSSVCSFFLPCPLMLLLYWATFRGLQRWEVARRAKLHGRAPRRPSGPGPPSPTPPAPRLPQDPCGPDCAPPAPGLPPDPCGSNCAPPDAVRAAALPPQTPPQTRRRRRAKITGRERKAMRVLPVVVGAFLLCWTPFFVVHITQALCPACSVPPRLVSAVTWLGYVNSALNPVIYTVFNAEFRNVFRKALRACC
- Protocol Summary: Receptor binding assay, D4.2 dopamine receptor ([3H]spiperone competition, CHO K1 cell membranes)
- Test Context: 0.2 nM [3H]spiperone, CHO K1 membranes, 60 min, 25° C.; apparent Ki from IC50 (Cheng-Prusoff); read-out: D4 Ki
- Experimental: A cell line expressing human dopamine D2 (Long form) receptors was purchased from Oregon Health Sciences University, Portland, Oreg. The D2 receptor cDNA was subcloned into an expression vector, pRc/CMV. […] Saturation and competition binding data were analyzed using an iterative nonlinear least-square curve-fitting Ligand program. […] To allow these calculations, Kd values were measured for the interaction of various ligands with the receptor. […]
The scale used: pKi is minus the common logarithm of the concentration in molar units.

The cases that follow already have their pKi on record.
Query: Given Clc1cccc(N2CCN(Cc3ccc4ccccc4n3)CC2)c1 , report its pKi on human recombinant dopamine D4.2 receptor (Homo sapiens, UniProt P21917, DEL265-296).
Result: 8.57

Query: Report the value of pKi obtained on human recombinant dopamine D4.2 receptor (Homo sapiens, UniProt P21917, DEL265-296) for COc1ccc(N2CCN(Cc3ccc4ccccc4n3)CC2)cc1 .
Result: 7.00

Query: Please indicate recorded pKi of Clc1ccc(N2CCN(Cc3ccc4ccccc4n3)CC2)cc1Cl measured with human recombinant dopamine D4.2 receptor (Homo sapiens, UniProt P21917, DEL265-296).
Result: 7.21

Query: Look up human recombinant dopamine D4.2 receptor (Homo sapiens, UniProt P21917, DEL265-296) data: pKi of Cc1ccc(N2CCN(Cc3ccc4ccccc4n3)CC2)cc1 , then report it.
Result: 8.81

Query: GET pKi where system = human recombinant dopamine D4.2 receptor (Homo sapiens, UniProt P21917, DEL265-296) and item = OCc1ccc(N2CCN(Cc3cnc4ccccc4c3)CC2)cc1Br
Result: 7.87

Further cases:
Query: Retrieve pKi on human recombinant dopamine D4.2 receptor (Homo sapiens, UniProt P21917, DEL265-296); query Fc1ccccc1N1CCN(Cc2cnc3ccccc3c2)CC1
Result: 7.54

Query: Please tell me the measured pKi for OCc1ccc(N2CCN(Cc3ccc4ccccc4n3)CC2)cc1F ; system: human recombinant dopamine D4.2 receptor (Homo sapiens, UniProt P21917, DEL265-296).
Result: 7.06

Query: Jot down pKi (human recombinant dopamine D4.2 receptor (Homo sapiens, UniProt P21917, DEL265-296)) of Clc1cc(Cl)cc(N2CCN(Cc3ccc4ccccc4n3)CC2)c1 .
Result: 6.92

* * *

Catalogue of Ki readings, one per entry.
- Tested On: human dopamine D2 (Long form) receptors (Homo sapiens)
- Sequence (P14416 whole entry): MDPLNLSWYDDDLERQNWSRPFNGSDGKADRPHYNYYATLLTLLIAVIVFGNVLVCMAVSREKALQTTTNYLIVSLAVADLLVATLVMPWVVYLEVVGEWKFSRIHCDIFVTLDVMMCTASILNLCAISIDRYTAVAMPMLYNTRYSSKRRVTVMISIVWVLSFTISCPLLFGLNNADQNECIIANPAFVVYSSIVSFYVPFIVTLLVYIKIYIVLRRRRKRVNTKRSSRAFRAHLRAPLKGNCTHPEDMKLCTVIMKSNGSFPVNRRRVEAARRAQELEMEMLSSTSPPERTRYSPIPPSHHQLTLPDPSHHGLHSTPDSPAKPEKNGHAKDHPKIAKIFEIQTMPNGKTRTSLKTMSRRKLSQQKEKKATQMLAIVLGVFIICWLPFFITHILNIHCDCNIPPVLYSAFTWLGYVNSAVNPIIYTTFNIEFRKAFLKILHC
- Protocol Summary: biochemical
- Test Context: 0.2 nM [3H]spiperone, CHO K1 membranes, 60 min, 25° C.; apparent Ki from IC50 (Cheng-Prusoff)

// solved cases for Ki follow
Query: Retrieve Ki measured for OCc1ccc(N2CCN(Cc3ccc4ccccc4n3)CC2)cc1Cl and print it.
Result: > 10 µM

Query: Supply measured Ki of Fc1ccc(C2=CCN(Cc3ccc4ccccc4n3)CC2)cc1 in your reply.
Result: 0.254 µM

Query: Look up and report measured Ki for this entry: COCc1ccc(N2CCN(Cc3ccc4ccccc4n3)CC2)cc1Cl
Result: > 5.88 µM

Query: Please supply the value of reported Ki for the item CCCc1cccc(N2CCN(Cc3ccc4ccccc4n3)CC2)c1
Result: 5.81 µM

Query: Supply reported Ki belonging to this compound: Clc1cccc(N2CCN(Cc3ccc4ccccc4n3)CC2)c1
Result: > 5.88 µM

New cases:
Query: For the compound OCc1ccc(N2CCN(Cc3ccc4ccccc4n3)CC2)cc1 , report Ki.
Result: > 5.88 µM

Query: For the compound Cc1ccc(N2CCN(Cc3cnc4ccccc4c3)CC2)cc1 , give its measured Ki value.
Result: 2.16 µM

Query: Report measured Ki; entry is OCc1ccc(N2CCN(Cc3cnc4ccccc4c3)CC2)cc1F
Result: > 5.88 µM
